B1: mRNA-splicing (parent)
chain: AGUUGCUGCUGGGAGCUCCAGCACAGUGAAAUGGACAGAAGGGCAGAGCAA

# Variants of: B1
# assayName: exon inclusion enrichment index; higher = more inclusion; WT1 exon 5 minigene, HEK293
# binarize exon inclusion enrichment index: threshold 0.1 inclusive, high side class 1, low side class 0

biosequence	class
AGUUGAAGAAGGGAGCUCCAGCACAGUGAAAUGUUCAGAAGGGCAGAGCAA	class 0
AGUUAGGGAUAAGAGCUCCAGCACAGUGAAAUGGACAGAAGGGCAGAGCAA	class 0
AGUUCACACAGGGAGCUCCAGCACUUUGAAAUGGACAGAAGGGCAGAGCAA	class 1
AGUUCUUCUCGGGAGCUCCAGCACACAGAAAUGGACAGAAGGGCAGAGCAA	class 1
AGUUCCAGCCGGGAGCUCCAGCACAGUGAAAUGGACAGAAGGGCAGAGCAA	class 1
AGUUGACCGCGGGAGCUCCAGCACAGUGAAAUGGACAGAAGGGCAGAGCAA	class 1
AGUUGCUGCUGGGAGCGACAGCACAGUGAAAUGGACAGAAGGGCAGAGCAA	class 1
AGUUCACACAGGGAGCUCCAGCACGUUGAAAUGGACAGAAGGGCAGAGCAA	class 1
AGUUAUAUAUGGCGGCUCCAGCACAGUGAAAUGGACAGAAGGGCAGAGCAA	class 1
AGUUAUGAAUGGGAGCUCCAGCACAGUGAAAUGGACAGAAGGGCAGAGCAA	class 1
AGUUUCUUUUGGGAGCUCCAGCACAGUGAAAUGGACACUAGGGCAGAGCAA	class 0
AGUUGAAGAAGGGAGCUCCAGCACAGUGAAAUGGGUAGAAGGGCAGAGCAA	class 0
